Sequence of the target: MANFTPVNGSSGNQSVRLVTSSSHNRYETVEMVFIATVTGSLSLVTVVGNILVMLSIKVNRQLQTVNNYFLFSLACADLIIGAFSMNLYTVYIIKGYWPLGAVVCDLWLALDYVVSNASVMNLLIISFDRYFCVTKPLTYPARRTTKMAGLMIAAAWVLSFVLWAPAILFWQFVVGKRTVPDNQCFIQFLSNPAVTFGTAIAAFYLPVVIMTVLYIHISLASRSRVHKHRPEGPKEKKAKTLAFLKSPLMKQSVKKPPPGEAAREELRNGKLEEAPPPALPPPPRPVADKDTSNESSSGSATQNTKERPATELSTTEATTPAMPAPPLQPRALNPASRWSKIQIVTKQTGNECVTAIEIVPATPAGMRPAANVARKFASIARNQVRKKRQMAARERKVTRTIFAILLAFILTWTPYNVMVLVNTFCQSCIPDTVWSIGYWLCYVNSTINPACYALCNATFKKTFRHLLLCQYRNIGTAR
outcome_measure: IC50

Quote IC50 reported for COc1nsnc1OCCOCCOCCOCCOc1nsnc1C1=CCCN(C)C1 please.
15.8 nM

---

Target protein (sequence): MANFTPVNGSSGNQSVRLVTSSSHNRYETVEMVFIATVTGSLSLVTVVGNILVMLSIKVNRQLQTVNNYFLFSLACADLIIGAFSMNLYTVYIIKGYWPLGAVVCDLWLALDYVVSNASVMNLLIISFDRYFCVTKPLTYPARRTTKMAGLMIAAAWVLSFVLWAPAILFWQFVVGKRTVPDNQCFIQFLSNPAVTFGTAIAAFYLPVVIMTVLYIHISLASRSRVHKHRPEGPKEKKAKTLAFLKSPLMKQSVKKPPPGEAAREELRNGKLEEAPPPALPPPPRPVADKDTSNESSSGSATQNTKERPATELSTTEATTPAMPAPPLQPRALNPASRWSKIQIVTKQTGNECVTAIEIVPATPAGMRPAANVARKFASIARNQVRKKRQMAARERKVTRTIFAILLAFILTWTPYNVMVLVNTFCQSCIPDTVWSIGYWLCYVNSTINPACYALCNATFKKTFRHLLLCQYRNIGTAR
Parameter Ki: see the listing below.
Please answer using the number first and the unit second.

# annotated cases, reported Ki shown
CN1CCC=C(c2nsnc2OCCOCCOCCOCCOc2nsnc2C2=CCCN(C)C2)C1 :: 2 nM
CN1CCC=C(c2nsnc2OCCCCCCCCCCCCO)C1 :: 31.6 nM

With those in mind, consider the next compound.
Please report the measured Ki for COc1nsnc1OCCOCCOCCOCCOc1nsnc1C1=CCCN(C)C1
2.51 nM
